pIC50 listing for selected compounds.
# target-or-test-system: Human M4 (Homo sapiens)
# Sequence (P08173 whole entry): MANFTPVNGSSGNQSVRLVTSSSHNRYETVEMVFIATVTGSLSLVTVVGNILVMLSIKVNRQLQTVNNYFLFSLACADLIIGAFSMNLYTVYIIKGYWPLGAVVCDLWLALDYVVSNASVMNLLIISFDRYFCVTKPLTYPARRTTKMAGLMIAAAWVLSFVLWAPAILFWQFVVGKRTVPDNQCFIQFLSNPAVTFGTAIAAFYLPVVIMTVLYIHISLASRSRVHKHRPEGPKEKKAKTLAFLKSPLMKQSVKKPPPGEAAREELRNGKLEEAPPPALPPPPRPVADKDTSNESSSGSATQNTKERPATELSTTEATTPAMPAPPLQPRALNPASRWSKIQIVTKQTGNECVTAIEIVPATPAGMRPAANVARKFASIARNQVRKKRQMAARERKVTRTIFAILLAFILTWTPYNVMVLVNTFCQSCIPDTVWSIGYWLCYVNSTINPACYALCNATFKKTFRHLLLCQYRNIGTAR
# experimental-protocol: mAChR M4 cell-based functional assay (calcium flux, human M4/Gqi5/CHO cells)
# measurement-setup: antagonist mode, decrease of the response to an EC80 concentration of acetylcholine; CHO-K1 cells with Gqi5
pIC50: −log10 of the molar value.

The cases that follow already have their pIC50 on record.
>  <compound>
Cc1cnn(C)c1-c1ccc(N2CCC3CN(Cc4ccccc4)CC32)nn1 (stereo not drawn)

>  <measured>
< 5.00

$$$$
>  <compound>
Fc1ccc(-c2ccc(N3CCC4CN(CC56CC7CC(CC(C7)C5)C6)CC43)nn2)c(Cl)c1 (stereo not drawn)

>  <measured>
< 5.00

$$$$

Give the value of pIC50 reported for the following: CC/C=C\CCCN1CC2CCN(c3ccc(-c4c(C)cnn4C)nn3)C2C1 (stereo not drawn)
< 5.00
